# Test Name: OD615 S. cerevisiae growth inhibition, permissive medium, pilot counter-assay, permissive growth control for S. cerevisiae lifespan shortening project (AID 705)
# Cond: OD615, 24 h, at 10 µM, stronger effect = higher value
Assign growth inhibition to each entry below.
One number for each entry, in %.

> print(dat)
                                   compound       measure.name  result.value
1  CN1C(=O)C(O)(CC(=O)c2ccccn2)c2cc(Br)ccc21 (stereo unspecified)  growth inhibition         -0.08
2  CC(C)N(CCc1ccncc1)C(=O)Nc1ccc(Cl)c(Cl)c1  growth inhibition         -4.55
3  CCCn1c(C(O)c2ccc3c(c2)OCO3)nc2ccccc21 (stereo unspecified)  growth inhibition          1.37
4  Cc1ccc(Cn2c(Sc3nccc(C)n3)nc3c2c(=O)[nH]c(=O)n3C)cc1  growth inhibition         -22.6
5   O=C(c1ccco1)N1CCN(c2nc3ccsc3c(=O)s2)CC1  growth inhibition        -0.135

// batch mode: one growth inhibition value per listed entry
1. O=C(NCc1cccs1)c1cnc2sccn2c1=O
2. N#CCCN(CCC#N)C(=O)c1ccc(Cl)cc1
3. COc1ccccc1NC(=O)C1C2C=CC3(CN(Cc4cccnc4)C(=O)C13)O2 (stereo unspecified)

Result:
1: -9.93; 2: -2.15; 3: 6

// batch mode: one growth inhibition value per listed entry
1. CCOC(=O)N1CCN(C(=O)C(C)(C)Oc2ccc(Cl)cc2)CC1
2. ON1C(c2ccc(Cl)cc2Cl)N(O)[C@H]2CCCC[C@H]21 (stereo partly specified)
3. O=C(Nc1ccc(F)cc1F)N1CCN(C/C=C/c2ccccc2)CC1

Result:
1: -8.16; 2: -6.31; 3: -1.48

====

Assign RAM network inhibition to each entry below.
# Test Name: RAM signaling pathway blockade in yeast – S. cerevisiae, Pdr1DBD-CYC8 efflux-inhibited sensitized strain, primary screen (AID 1298);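 note: 0% = DMSO untreated cells without growth and 100% = 10 µM 1-NA-PP1 full growth; higher means more yeast growth rescued from 5-FOA killing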
# Cond: S. cerevisiae cbk1-as DSE1-URA3 strain, 5-FOA growth OD615, 2 d; at 50 µM; stronger effect = higher value
The source made the active and inactive calls.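 The calls were made as follows: active = RAM network inhibition above 8.4% in each of two replicates, 3 SD over the compound average; inconclusive = above 8.4% inhibition in only one replicate; inactive = 8.4% inhibition or less in each replicate.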

Past entries and their recorded results:
> print(dat)
                                   molecule            measure.name       result.value
1         CSc1nc2c(c(=O)n1-c1ccc(F)cc1)SCC2  RAM network inhibition   4.08% (inactive)
2                 CCC(=O)Nc1nnc(-c2ccco2)o1  RAM network inhibition    4.9% (inactive)
3            CCCCCN=C(C)c1c(O)c2ccccc2oc1=O  RAM network inhibition  -1.55% (inactive)
4  CN=C1SC(CC(=O)Nc2ccccc2F)C(=O)N1C (configuration not stated)  RAM network inhibition   1.28% (inactive)
5  Cc1ccc(C(=O)NCc2ccco2)cc1S(=O)(=O)N1CCCCC1  RAM network inhibition   6.81% (inactive)

// batch mode: one RAM network inhibition value per listed entry
1. CC(=O)c1ccc(-n2nncc2C)cc1
2. O=C(Nc1ccc(Br)cc1Cl)c1cnccn1
3. O=C(CN(CC(=O)N1CCOCC1)S(=O)(=O)c1ccc(Br)s1)N1CCOCC1

Result:
1. 2.75% (inactive)
2. 2.32% (inactive)
3. 0.11% (inactive)

// batch mode: one RAM network inhibition value per listed entry
1. Cc1ccc2c(CC(=O)O)coc2c1
2. CCOC(=O)N1CCC(NC(=O)CN2C(=O)CSc3ncccc32)CC1
3. CCc1ccc(C2N(c3ccc(OC)cc3)C(=O)C3CCCN32)cc1 (configuration not stated)
4. CCOC(=O)N1CCN(S(=O)(=O)c2cc(Br)cc3c2N(C(=O)C2CC2)CC3)CC1

Result:
1: -1.05% (inactive); 2: 1.48% (inactive); 3: 0.23% (inactive); 4: 5.87% (inactive)

====

# Test Name: reversal of MRP1-mediated doxorubicin resistance, pilot screen, H69AR cells, doxorubicin co-treatment (AID 601)
# Cond: H69AR cells + 2 uM doxorubicin, CellTiter-Glo, 72 h; measured here: viability with 2 uM doxorubicin; at 10 µM; stronger effect = lower value
Please note: viability exactly at 90% is NOT MET. Only values below 90% get MET.

> print(dat)
                                test.smiles  group.label
1         COc1ncnc2c1N=C1CC(C)(C)CC(N)=C1S2          MET
2               Cc1ccc(-c2nc3ccccc3[nH]2)s1          MET
3  CCC(=O)O[C@]1(C(=O)CCl)[C@@H](C)C[C@H]2[C@@H]3CCC4=CC(=O)C=C[C@]4(C)[C@@]3(F)[C@@H](O)C[C@@]21C      NOT MET
4                     COc1cccc(OC)c1OCCNCCO          MET

Kindly review the next molecule as well.
Task: Please indicate whether the reported viability of CCN(CC)CCCNC(=O)c1nn(-c2ccc(OC)cc2OC)c(=O)c2ccccc12 is strictly below 90%.
Result: NOT MET

====

# Test Name: growth inhibitors of H69AR lung tumor, primary screen, human, duplicate replicates (AID 580);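 note: 100% = mean luminescence of untreated wells and 0% = no signal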
# Cond: H69AR lung tumor cells viability, ATP luminescence, 72 h; at 10 µM; stronger effect = lower value
Calls of active or inactive are those of the source.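 How the source made its calls: active means viability at or under a set limit in both replicates, limit being median viability minus 3 SD (cut at about 48% in these data, passing the limit was not always enough); inconclusive means at or under the limit in just one replicate; inactive means at or above the limit in both replicates.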
Assign viability to each entry below.

Past entries and their recorded results:
> print(dat)
                                   compound      result.value
1  COc1cc(C2C(C(=O)c3ccc(C)o3)=C(O)C(=O)N2c2cc(C)on2)cc(Br)c1O (configuration not stated)  95.7% (inactive)
2             CCOc1ccc2nc(SCC#N)c(C#N)cc2c1   100% (inactive)
3  Cc1cc(Br)ccc1NC(=O)CNC(=O)CSc1n[nH]c(N)n1   104% (inactive)

// batch mode: one viability value per listed entry
1. CC(=O)c1cnc2cc(-c3ccccc3)nn2c1C
2. O=c1c2c3c(sc2n2cnnc2n1CCc1ccccc1)CCCC3
3. COC(=O)c1ccc2ncccc2c1
4. Nc1ccc2cn[nH]c2c1
5. CCOC(=O)c1oc2ccccc2c1CSc1nnnn1-c1ccc(OC)cc1
6. Cc1ccc(N2CC(C(=O)Nc3nnc(C)s3)CC2=O)cc1 (configuration not stated)

Result:
103% (inactive)
77.1% (inactive)
107% (inactive)
93.1% (inactive)
75% (inactive)
106% (inactive)

// batch mode: one viability value per listed entry
1. Cc1cnc(C(=O)Nc2ccc(N3CCOCC3)cc2)cn1
2. C/C(N)=C(/C#N)C(=O)COC(=O)CCSc1ccccc1
3. Cc1cc(C)n2cc(CSCc3ccco3)nc2n1

Result:
100% (inactive)
101% (inactive)
95.2% (inactive)

====

# Test Name: RAM signaling pathway blockade in yeast – S. cerevisiae, Pdr1DBD-CYC8 efflux-inhibited sensitized strain, primary screen (AID 1298);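 note: 0% = DMSO untreated cells without growth and 100% = 10 µM 1-NA-PP1 full growth; higher means more yeast growth rescued from 5-FOA killing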
# Cond: S. cerevisiae cbk1-as DSE1-URA3 strain, 5-FOA growth OD615, 2 d; at 50 µM; stronger effect = higher value
Assign RAM network inhibition to each entry below.
One number for each entry, in %.

Past entries and their recorded results:
> print(dat)
                              test.smiles  result.value
1           O=C(Cc1ccc(Cl)cc1)Nc1ccccc1CO          5.48
2   COc1ccc(OC)c2c(C)cc(N3CCCN(C)CC3)nc12             0
3  c1cnn(-c2nc(N3CCOCC3)nc(N3CCOCC3)n2)c1         -2.04
4              Nc1ccc2nc3n(c(=O)c2c1)CCC3          3.92
5    c1ccc(N2CCN(c3nnnn3-c3ccccc3)CC2)cc1             9

Now look at this entry.
Task: Name the recorded RAM network inhibition for COc1cc(C(=O)N2CCN(c3ccc(C)cc3C)CC2)cc(OC)c1OC .
Result: 4.77

====

Assign growth inhibition to each entry below.
# Test Name: OD615 S. cerevisiae growth inhibition, permissive medium, pilot counter-assay, permissive growth control for S. cerevisiae lifespan shortening project (AID 705)
# Cond: OD615, 24 h, at 10 µM, stronger effect = higher value
Calls of active or inactive are those of the source.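 How the source made its calls: active means growth inhibition above 25% in both replicates, a cutoff set 3 SD above the mean; inconclusive means above 25% in only one replicate; inactive means the rest.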

> print(dat)
                                   compound       measure.name        result.value
1  CCOC(=O)CNC(=O)c1cn(C)c(=O)c2cc(OC)c(OC)cc12  growth inhibition   -29.2% (inactive)
2     O=C(O)[C@H](Cc1ccccc1)N1Cc2ccccc2C1=O  growth inhibition   -4.39% (inactive)
3  O=C1C2C3C=CC(C3)C2C(=O)N1c1ccccc1 (configuration not stated)  growth inhibition  -0.875% (inactive)
4  CCN1CCN(C(=O)C2CCN(S(=O)(=O)c3cccc4cccnc34)CC2)CC1  growth inhibition   -6.23% (inactive)
5  CC1Cn2c(nnc2-c2cccc(N)c2)S1 (configuration not stated)  growth inhibition    1.06% (inactive)
6  Cn1c(NC(=O)c2ccc(Cl)cc2Cl)cc(=O)n(C)c1=O  growth inhibition   -4.17% (inactive)

// batch mode: one growth inhibition value per listed entry
1. CCCC(=O)Nc1nc2c(OC)ccc(OC)c2s1
2. COc1ccc(-c2cc(N)n(S(=O)(=O)Cc3ccccc3)n2)c(OC)c1
3. Cc1nn(CC(=O)Nc2cccnc2N2CCOCC2)c(=O)c2ccccc12
4. Cc1ccc(N2Cc3ccccc3OC(C)C2=O)cc1 (configuration not stated)
5. CCOC(=O)COC(=O)c1ccc(O)cc1
6. CCCOc1nc2c(c(=O)n(C)c(=O)n2C)n1Cc1cccc2ccccc12

Result:
1. -7.39% (inactive)
2. -2.75% (inactive)
3. -23.7% (inactive)
4. -1.43% (inactive)
5. -4.13% (inactive)
6. -12.5% (inactive)
